# Applied conditions: in n-pentanol, 333.65 K
Result type: solubility (mole fraction)

Problem: Consider the compound "CC(=O)Nc1ccc(O)cc1" and give its measured solubility (mole fraction).
Result: 0.073

* * *

# Applied conditions: in methanol, 313.95 K
Result type: solubility (mole fraction)
Answers are plain numbers.

Problem: Consider the compound "CC(=O)Nc1ccc(O)cc1" and give its measured solubility (mole fraction).
Result: 0.0906

* * *

# Applied conditions: in n-butanol, 353.15 K
Result type: solubility (mole fraction)
Give bare numbers.

Problem: Consider the molecule "CC(=O)Nc1ccc(O)cc1" and give its measured solubility (mole fraction).
Result: 0.126

* * *

# Applied conditions: in n-propanol, 351.25 K
Result type: solubility (mole fraction)
Answers are plain numbers.

Problem: Consider the compound "CC(=O)Nc1ccc(O)cc1" and give its measured solubility (mole fraction).
Result: 0.142
